Molecular target: Insulin receptor-related protein (Homo sapiens) (UniProt P14616);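 note: mean percent inhibition of IRR, reported within the GSK PKIS screening panel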
Sequence (P14616 27-742 limits assumed): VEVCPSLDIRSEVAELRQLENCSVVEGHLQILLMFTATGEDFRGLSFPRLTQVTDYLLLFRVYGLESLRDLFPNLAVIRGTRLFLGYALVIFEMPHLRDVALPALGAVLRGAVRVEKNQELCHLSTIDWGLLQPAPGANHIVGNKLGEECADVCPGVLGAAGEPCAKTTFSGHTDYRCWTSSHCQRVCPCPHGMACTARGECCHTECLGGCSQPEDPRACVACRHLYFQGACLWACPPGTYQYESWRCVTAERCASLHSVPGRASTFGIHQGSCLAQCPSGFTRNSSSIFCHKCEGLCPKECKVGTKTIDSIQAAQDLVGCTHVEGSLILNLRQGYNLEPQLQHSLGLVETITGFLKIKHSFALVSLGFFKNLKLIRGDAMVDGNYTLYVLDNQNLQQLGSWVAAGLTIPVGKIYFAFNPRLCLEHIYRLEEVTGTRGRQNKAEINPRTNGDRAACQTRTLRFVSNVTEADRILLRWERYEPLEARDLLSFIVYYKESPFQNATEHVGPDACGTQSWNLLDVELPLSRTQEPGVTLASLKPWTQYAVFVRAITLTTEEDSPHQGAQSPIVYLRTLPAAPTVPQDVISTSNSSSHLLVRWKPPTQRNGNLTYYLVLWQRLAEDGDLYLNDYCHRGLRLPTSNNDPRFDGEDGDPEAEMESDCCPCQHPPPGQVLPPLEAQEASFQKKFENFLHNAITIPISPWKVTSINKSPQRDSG
Sequence (P14616 747-1297 limits assumed): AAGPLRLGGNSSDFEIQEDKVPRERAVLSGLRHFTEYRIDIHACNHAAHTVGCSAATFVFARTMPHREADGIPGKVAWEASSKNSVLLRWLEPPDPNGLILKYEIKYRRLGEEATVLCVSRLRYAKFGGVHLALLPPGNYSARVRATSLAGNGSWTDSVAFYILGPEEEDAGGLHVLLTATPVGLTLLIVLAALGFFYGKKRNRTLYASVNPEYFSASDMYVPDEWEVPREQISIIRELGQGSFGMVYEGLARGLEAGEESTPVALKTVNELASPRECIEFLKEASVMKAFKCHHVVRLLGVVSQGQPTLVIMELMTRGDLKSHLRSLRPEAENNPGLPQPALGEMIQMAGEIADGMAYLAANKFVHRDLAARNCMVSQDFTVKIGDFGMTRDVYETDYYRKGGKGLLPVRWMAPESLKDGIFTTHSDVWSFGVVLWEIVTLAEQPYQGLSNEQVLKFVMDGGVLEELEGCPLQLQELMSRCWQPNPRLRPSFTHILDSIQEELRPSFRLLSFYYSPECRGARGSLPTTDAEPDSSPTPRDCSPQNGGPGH
Settings: at 0.1 µM
Give measured inhibition for each item. Keep answers brief.
Form field: result (number plus unit)

Data request, read-out inhibition, for `COc1cc(C=NNc2ncnc3c2cnn3Cc2ccccc2)ccc1O` -3.04%

Ok, now `NS(=O)(=O)c1ccc(N/C=C2\C(=O)Nc3ccc4ncsc4c32)cc1` 0.69%

Now this one: `COc1cccc(-n2ncc3c(N/N=C/c4ccncc4)ncnc32)c1` 1.64%

Also check `COc1cc2c(cc1Nc1nc(Nc3ccsc3C(N)=O)c3cc[nH]c3n1)N(C(=O)CN(C)C)CCC2` 95.7%

Another compound to look at: `CCn1c(-c2nonc2N)nc2c(C#CC(C)(C)O)nc(O[C@@H](CN)c3ccccc3)cc21` -1.87%

Could you do the same for `NC(=O)c1sc(-n2cnc3cc(C(F)(F)F)ccc32)cc1OCc1ccccc1Br` , please? 1.13%
